Molecular target: HCMV polymerase (Human cytomegalovirus)
Sequence (P08546 whole entry): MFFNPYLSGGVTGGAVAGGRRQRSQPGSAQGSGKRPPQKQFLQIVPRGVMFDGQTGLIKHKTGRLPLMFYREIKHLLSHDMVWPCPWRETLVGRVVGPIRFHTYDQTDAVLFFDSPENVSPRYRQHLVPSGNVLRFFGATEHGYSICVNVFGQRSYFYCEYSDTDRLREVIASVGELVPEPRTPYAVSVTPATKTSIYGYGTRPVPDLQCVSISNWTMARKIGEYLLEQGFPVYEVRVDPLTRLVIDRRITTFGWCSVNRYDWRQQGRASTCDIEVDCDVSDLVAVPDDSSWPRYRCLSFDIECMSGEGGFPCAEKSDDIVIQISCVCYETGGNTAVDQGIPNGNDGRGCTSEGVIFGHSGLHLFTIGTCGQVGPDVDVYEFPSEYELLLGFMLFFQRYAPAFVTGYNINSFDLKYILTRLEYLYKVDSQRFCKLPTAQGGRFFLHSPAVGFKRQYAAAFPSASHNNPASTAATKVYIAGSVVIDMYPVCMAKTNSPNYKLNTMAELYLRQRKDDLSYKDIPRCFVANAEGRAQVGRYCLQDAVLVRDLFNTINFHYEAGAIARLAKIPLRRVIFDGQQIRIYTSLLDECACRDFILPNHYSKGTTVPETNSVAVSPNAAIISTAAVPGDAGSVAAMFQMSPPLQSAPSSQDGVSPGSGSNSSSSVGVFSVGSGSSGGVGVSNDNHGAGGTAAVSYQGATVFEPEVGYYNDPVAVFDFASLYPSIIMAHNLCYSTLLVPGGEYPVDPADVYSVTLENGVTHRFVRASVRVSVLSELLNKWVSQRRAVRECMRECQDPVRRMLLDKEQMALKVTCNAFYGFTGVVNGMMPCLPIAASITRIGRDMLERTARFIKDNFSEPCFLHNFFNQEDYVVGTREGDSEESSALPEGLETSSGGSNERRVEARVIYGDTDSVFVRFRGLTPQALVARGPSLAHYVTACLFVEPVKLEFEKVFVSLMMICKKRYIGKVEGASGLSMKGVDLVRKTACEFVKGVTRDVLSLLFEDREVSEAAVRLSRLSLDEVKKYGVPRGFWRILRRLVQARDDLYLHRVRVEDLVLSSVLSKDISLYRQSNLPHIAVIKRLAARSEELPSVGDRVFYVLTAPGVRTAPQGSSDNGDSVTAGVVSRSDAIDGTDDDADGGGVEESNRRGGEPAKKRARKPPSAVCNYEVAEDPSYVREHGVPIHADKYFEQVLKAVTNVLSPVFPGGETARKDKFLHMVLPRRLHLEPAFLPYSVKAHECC
Experiment: HCMV polymerase assay (scintillation proximity assay, modified version)
Details: modified HCMV polymerase SPA assay; compounds diluted in 100% DMSO, 4.5 mM DTT
Listing: pIC50 of selected compounds
Keep in mind that pIC50 stands for -log10 of concentration in molar terms.

Recorded results for 5 compounds are shown here.
[
  {
    "Compound": "Cc1nc2c(cc1C#CCO)c(=O)c(C(=O)NCc1ccc(Cl)cc1)cn2C [Example 2]",
    "Numeric Result": 5.74
  },
  {
    "Compound": "COc1nc2c(cc1CCCO)c(=O)c(C(=O)NCc1ccc(Cl)cc1)cn2C [Example 7]",
    "Numeric Result": 6.34
  },
  {
    "Compound": "Cc1nc2c(cc1CCCO)c(=O)c(C(=O)NCc1ccc(Cl)cc1)cn2C [Example 3]",
    "Numeric Result": 5.57
  },
  {
    "Compound": "COc1nc2c(cc1C#CCO)c(=O)c(C(=O)NCc1ccc(Cl)cc1)cn2C [Example 6]",
    "Numeric Result": 5.93
  },
  {
    "Compound": "Cn1cc(C(=O)NCc2ccc(Cl)cc2)c(=O)c2ccc(=O)[nH]c21 [Example 5]",
    "Numeric Result": 4.77
  }
]

Prompt: Identify measured pIC50 associated with COc1nc2c(cc1I)c(=O)c(C(=O)NCc1ccc(Cl)cc1)cn2C [Example 4]
Completion: 4.65
